- Test system: UO-31 renal
- measurementNotes: NCI-60 one-dose screen, 48 h (100 = growth as untreated, 0 = no growth, -100 = all killed)
- testContext: 10 µM unless noted
- Procedure: Growth inhibition of the UO-31 human tumor cell line is measured as a screen for anti-cancer activity. Cells are grown in 96 well plates and exposed to the test compound for 48 hours. Compounds are tested at a single concentration, which is 10^-5 M for most compounds. The reported endpoint is percent growth (GI% or GIPRCNT), where numbers from 0 - 100% represent growth inhibition, and numbers from -100% - 0 represent cell death. For example, a value of 40 represents 60% growth inhibition. […]
About 83,000 compounds went through this panel and 20% of them were active in at least one assay; those are over-represented in the sample as a whole.
measurementLabel: growth (%)
Answers are plain numbers, in %.

Solved entries (count: 5):
molecule=O=NN(Cc1cccnc1)C(=O)NC1CCCCC1 measured=90
molecule=CC1=C(C(=O)OCC2CCN(C(=O)OC(C)(C)C)CC2)[C@H](c2cccc(Br)c2)C2=C(CC(C)(C)CC2=O)N1 measured=31.2
molecule=Cn1c(C(=O)c2cccc3ccccc23)nc2ccccc21 measured=-21.3
molecule="O=CCCCC(O)C=O (stereo not given)" measured=81.5
molecule=Cc1ccc(NC2=CC(=O)C(=O)c3ccccc32)c(C)c1 measured=71.2

Below are some molecules; for each one, tell me its growth.
1. COc1ccc(CSc2nnc(SCC(=O)Nc3ccc(Cl)cc3)s2)cc1
2. O=c1c(-c2nc3ccccc3[nH]2)cc2ccccc2n1Cc1cn(Cc2ccc(N3CCOCC3)cc2)nn1
3. O=c1oc2ccc(F)cc2c(=O)n1-c1ccc(Cl)cc1F
4. O=[N+]([O-])c1cc2c(ccc3occc32)o1
5. O=C(/C=C/c1ccc(Cl)cc1)c1ccc(Nc2nc(NCCO)nc(Nc3ccc(Cl)cc3)n2)cc1
6. CCCCC1CCc2cccc3c(SCC(=O)N(C)c4ccc(Cl)cc4)cc[n+]1c23 (stereo not given)
7. COc1ccc(/C=C/C(=O)c2c(C)nc3ccccc3c2/C=C/c2ccccc2)c(OC)c1
8. Cc1ccc(OCCCCCCNCCO)c(C)c1

## Result
1. 52.8
2. 74.8
3. 1.41
4. 23.4
5. 57.3
6. 103
7. 61.4
8. -21
